Origin of values: ChEMBL document CHEMBL1137710

# Tested on: UACC-257
# Procedure text: Growth inhibition of human UACC257 cells after 48 hrs by sulforhodamine B assay
# Format: functional
# Test conditions: UACC-257, 48 h, read-out: pLC50 (the source's name) (converted)
Here, each record is paired with measured CC50 data.
Lab book: enter the figure in µM, no units written.

// worked examples, CC50 included
Exam item: Supply CC50 value. Item: Nc1cc(N)c2nc(-c3ccccc3)c(NCc3ccc(Cl)c(Cl)c3)nc2c1
Marked response: 43.7

Exam item: Supply CC50 value. Item: Nc1cc(N)c2nc(-c3ccccc3)c(NCc3ccc(F)cc3)nc2c1
Marked response: 8.91

Exam item: Supply CC50 value. Item: COc1cc(CNc2nc3cc(N)cc(N)c3nc2-c2ccccc2)cc(OC)c1OC
Marked response: 27.5

New cases:
Exam item: Supply CC50 value. Item: COc1ccc(CNc2nc3cc(N)cc(N)c3nc2-c2ccccc2)cc1
Marked response: 56.2

Exam item: Supply CC50 value. Item: COc1cc(OC)cc(Oc2nc3cc(N)cc(N)c3nc2-c2ccccc2)c1
Marked response: 37.2

Exam item: Supply CC50 value. Item: Nc1cc(N)c2nc(-c3ccccc3)c(Sc3ccc(F)cc3)nc2c1
Marked response: 60.3

###

# Procedure text: Growth inhibition of human […] cells after 48 hrs by sulforhodamine B assay
# Type: functional
Observable: LC50

// worked examples, LC50 included
Exam item: Supply LC50 value. Item: COc1ccc(Sc2nc3cc(N)cc(N)c3nc2-c2ccccc2)cc1
Marked response: > 100 µM

Exam item: Supply LC50 value. Item: Nc1cc(N)c2nc(-c3ccccc3)c(NCc3ccc(Cl)c(Cl)c3)nc2c1
Marked response: 8.32 µM

Exam item: Supply LC50 value. Item: Nc1cc(N)c2nc(-c3ccccc3)c(NCc3ccc(F)cc3)nc2c1
Marked response: > 100 µM

Exam item: Supply LC50 value. Item: Nc1cc(N)c2nc(-c3ccccc3)c(Sc3ccc(Cl)c(Cl)c3)nc2c1
Marked response: > 100 µM

Exam item: Supply LC50 value. Item: COc1cc(CNc2nc3cc(N)cc(N)c3nc2-c2ccccc2)cc(OC)c1OC
Marked response: > 50.1 µM

New cases:
Exam item: Supply LC50 value. Item: Nc1cc(N)c2nc(-c3ccccc3)c(Sc3ccc(F)cc3)nc2c1
Marked response: > 100 µM

Exam item: Supply LC50 value. Item: COc1ccc(CNc2nc3cc(N)cc(N)c3nc2-c2ccccc2)cc1
Marked response: > 100 µM

Exam item: Supply LC50 value. Item: COc1ccc(Oc2nc3cc(N)cc(N)c3nc2-c2ccccc2)cc1
Marked response: > 100 µM

Exam item: Supply LC50 value. Item: COc1cc(CNc2nc3cc(N)cc(N)c3nc2-c2ccccc2)cc(OC)c1
Marked response: > 100 µM

Exam item: Supply LC50 value. Item: Nc1cc(N)c2nc(-c3ccccc3)c(Oc3ccc(F)cc3)nc2c1
Marked response: > 100 µM

Exam item: Supply LC50 value. Item: COc1ccc(CNc2nc3cc(N)cc(N)c3nc2-c2ccccc2)cc1OC
Marked response: > 100 µM

Exam item: Supply LC50 value. Item: Nc1cc(N)c2nc(-c3ccccc3)c(Oc3ccc(Cl)c(Cl)c3)nc2c1
Marked response: > 100 µM
